# measurement target: CYP2B6 (Homo sapiens)
# Construct: with pooled human liver microsomes; from tissue; host or cells: pooled human liver microsomes
# Sequence (P20813 whole entry): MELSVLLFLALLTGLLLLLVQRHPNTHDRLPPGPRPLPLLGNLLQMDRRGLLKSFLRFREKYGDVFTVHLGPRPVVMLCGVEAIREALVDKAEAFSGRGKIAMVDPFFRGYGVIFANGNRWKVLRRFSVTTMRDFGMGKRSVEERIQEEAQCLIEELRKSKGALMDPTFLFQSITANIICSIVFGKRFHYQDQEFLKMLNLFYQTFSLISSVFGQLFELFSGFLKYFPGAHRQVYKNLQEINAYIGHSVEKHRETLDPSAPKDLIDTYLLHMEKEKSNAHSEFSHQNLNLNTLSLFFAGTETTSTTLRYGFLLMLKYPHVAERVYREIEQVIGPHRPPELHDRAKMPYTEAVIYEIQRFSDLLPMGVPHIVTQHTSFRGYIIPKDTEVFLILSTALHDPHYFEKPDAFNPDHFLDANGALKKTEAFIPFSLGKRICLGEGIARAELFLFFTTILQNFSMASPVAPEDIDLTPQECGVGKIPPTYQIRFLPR
# assay remarks: Cytochrome P450 inhibition in human liver microsomes using LC-MS/MS, CYP2B6
# Format: in vitro ADME
# applied conditions: pooled human liver microsomes, substrate Bupropion
# Method: In IC50 shift experiments, CK (0.2 μL prepared in DMSO) was pre-incubated for 30 min at 37° C., at 8 different concentrations, with pooled human liver microsomes (0.1-1 mg/mL, depending on which enzyme was assessed) in the absence or presence of 1 mM NADPH in 100 μL of potassium phosphate buffer (100 mM, pH 7.4) and MgCl2 (2.5 mM). […]
endpoint label: IC50 (µM)
Reply with just the number (in µM).

Entry CC(C)=CCC[C@](C)(O[C@@H]1O[C@H](CO)[C@@H](O)[C@H](O)[C@H]1O)[C@H]1CC[C@]2(C)[C@@H]1[C@H](O)C[C@@H]1[C@@]3(C)CC[C@H](O)C(C)(C)[C@@H]3CC[C@]12C [CK, Ginsenoside compound K] : reported IC50 = ?
14.8

###

# measurement target: CYP2C9 (Homo sapiens, UniProt P11712)
# Construct: with pooled human liver microsomes; from tissue; host or cells: pooled human liver microsomes
# Sequence (P11712 whole entry): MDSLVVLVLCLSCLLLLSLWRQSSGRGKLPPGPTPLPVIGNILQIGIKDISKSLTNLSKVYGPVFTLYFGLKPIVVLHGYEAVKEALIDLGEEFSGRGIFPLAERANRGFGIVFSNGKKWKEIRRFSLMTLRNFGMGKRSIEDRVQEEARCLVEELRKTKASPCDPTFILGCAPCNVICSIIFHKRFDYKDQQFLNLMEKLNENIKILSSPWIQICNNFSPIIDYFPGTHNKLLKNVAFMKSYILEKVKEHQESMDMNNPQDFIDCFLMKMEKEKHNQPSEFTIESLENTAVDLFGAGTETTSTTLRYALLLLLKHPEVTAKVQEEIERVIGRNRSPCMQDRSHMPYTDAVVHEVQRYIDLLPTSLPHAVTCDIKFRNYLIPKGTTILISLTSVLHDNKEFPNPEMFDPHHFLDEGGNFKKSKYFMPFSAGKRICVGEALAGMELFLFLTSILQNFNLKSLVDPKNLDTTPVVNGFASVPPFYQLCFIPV
# assay remarks: Cytochrome P450 inhibition in human liver microsomes using LC-MS/MS, CYP2C9
# Type: in vitro ADME
# applied conditions: pooled human liver microsomes, substrate Diclofenac
endpoint label: IC50

Entry CC(C)=CCC[C@](C)(O[C@@H]1O[C@H](CO)[C@@H](O)[C@H](O)[C@H]1O)[C@H]1CC[C@]2(C)[C@@H]1[C@H](O)C[C@@H]1[C@@]3(C)CC[C@H](O)C(C)(C)[C@@H]3CC[C@]12C [CK, Ginsenoside compound K] : reported IC50 = ?
> 50 µM

###

# measurement target: hERG channel (Homo sapiens, UniProt Q12809)
# Construct: purchased
# Sequence (Q12809 whole entry): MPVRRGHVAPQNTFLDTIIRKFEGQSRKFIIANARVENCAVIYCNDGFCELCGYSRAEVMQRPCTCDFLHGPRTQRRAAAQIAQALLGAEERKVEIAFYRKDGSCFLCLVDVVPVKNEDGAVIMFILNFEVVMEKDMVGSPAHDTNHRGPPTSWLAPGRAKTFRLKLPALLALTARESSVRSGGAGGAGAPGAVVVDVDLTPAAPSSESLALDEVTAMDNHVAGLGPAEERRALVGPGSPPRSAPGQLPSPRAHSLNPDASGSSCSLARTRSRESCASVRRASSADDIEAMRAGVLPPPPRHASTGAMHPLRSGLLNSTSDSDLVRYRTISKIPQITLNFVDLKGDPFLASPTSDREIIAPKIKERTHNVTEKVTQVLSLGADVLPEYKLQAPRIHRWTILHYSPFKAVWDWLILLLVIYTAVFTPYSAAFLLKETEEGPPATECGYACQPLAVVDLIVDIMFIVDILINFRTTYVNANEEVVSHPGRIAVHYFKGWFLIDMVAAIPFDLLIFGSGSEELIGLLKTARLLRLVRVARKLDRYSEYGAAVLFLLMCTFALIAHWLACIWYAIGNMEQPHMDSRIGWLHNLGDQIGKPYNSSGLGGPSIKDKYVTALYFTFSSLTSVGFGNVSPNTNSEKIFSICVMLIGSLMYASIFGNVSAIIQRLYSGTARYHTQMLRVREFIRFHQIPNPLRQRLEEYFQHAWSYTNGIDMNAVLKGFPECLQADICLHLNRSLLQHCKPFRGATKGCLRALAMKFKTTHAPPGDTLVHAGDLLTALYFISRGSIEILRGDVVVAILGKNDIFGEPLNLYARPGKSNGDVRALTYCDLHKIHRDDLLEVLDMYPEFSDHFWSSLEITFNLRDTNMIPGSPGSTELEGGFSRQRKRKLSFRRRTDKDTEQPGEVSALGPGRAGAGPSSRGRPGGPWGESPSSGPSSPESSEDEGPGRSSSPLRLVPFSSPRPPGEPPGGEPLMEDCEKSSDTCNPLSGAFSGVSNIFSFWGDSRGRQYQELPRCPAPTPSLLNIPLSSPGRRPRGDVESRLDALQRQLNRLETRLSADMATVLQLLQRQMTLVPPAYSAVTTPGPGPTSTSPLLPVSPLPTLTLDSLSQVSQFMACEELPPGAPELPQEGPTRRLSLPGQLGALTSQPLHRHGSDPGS
# assay remarks: Predictor hERG fluorescence polarization (FP) binding assay
# applied conditions: hERG FP assay, triplicate measurements
pIC50: −log10 of the molar value.
endpoint label: pIC50

Entry CC(C)=CCC[C@](C)(O[C@@H]1O[C@H](CO)[C@@H](O)[C@H](O)[C@H]1O)[C@H]1CC[C@]2(C)[C@@H]1[C@H](O)C[C@@H]1[C@@]3(C)CC[C@H](O)C(C)(C)[C@@H]3CC[C@]12C [CK, Ginsenoside compound K] : reported pIC50 = ?
< 4.52

###

# measurement target: CYP2C19 (Homo sapiens, UniProt P33261)
# Construct: with pooled human liver microsomes; from tissue; host or cells: pooled human liver microsomes
# Sequence (P33261 whole entry): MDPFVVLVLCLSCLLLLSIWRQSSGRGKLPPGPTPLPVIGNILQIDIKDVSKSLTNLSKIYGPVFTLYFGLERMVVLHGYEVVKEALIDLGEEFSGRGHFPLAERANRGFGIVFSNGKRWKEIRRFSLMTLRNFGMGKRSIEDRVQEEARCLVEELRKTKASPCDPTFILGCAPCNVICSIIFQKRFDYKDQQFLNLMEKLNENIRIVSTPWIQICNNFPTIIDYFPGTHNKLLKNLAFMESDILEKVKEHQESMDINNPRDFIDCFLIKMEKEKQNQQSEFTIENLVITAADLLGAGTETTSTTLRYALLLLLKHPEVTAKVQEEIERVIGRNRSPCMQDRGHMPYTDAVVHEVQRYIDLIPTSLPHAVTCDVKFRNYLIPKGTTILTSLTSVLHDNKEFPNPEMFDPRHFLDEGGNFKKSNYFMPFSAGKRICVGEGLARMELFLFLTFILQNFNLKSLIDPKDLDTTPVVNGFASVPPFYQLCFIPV
# assay remarks: Cytochrome P450 inhibition in human liver microsomes using LC-MS/MS, CYP2C19
# Type: in vitro ADME
# applied conditions: pooled human liver microsomes, substrate S-Mephenytoin
endpoint label: IC50

Request - read-out IC50 | tested on CYP2C19 (Homo sapiens, UniProt P33261) | compound CC(C)=CCC[C@](C)(O[C@@H]1O[C@H](CO)[C@@H](O)[C@H](O)[C@H]1O)[C@H]1CC[C@]2(C)[C@@H]1[C@H](O)C[C@@H]1[C@@]3(C)CC[C@H](O)C(C)(C)[C@@H]3CC[C@]12C [CK, Ginsenoside compound K]
> 50 µM
